Every entry's value here was drawn from PubChem BioAssay (NCI).

Listed below: TGI values for each entry.
- Tested on: T-47D breast
- method_summary: NCI tumour cell line growth inhibition, 48 h
Use µM as the unit, but write only the number.

>  <molecule>
CC1=CC(O)CC(C)(C)C1/C=C/C(C)=C/C=C/C(C)=C/C=C/C=C(C)/C=C/C=C(C)/C=C/C1=C(C)CC(O)CC1(C)C (stereo not drawn)

>  <measure_name>
TGI

>  <value_reported>
44.7

$$$$
>  <molecule>
COc1ccc(-c2nn(-c3cccc(Cl)c3)cc2-c2cc(-c3cccs3)no2)cc1

>  <measure_name>
TGI

>  <value_reported>
25.3

$$$$
>  <molecule>
O=C(Nc1nc2ccc(F)cc2s1)c1cccnc1Nc1ccc(Cl)cc1Cl

>  <measure_name>
TGI

>  <value_reported>
8.01

$$$$

Query: Given the entry "Cn1c(=O)c2[nH]c(Nc3cccc(Cl)c3)nc2n(C)c1=O" , report its measured TGI.
Result: 8.72

* * *

- System: RXF 393 renal
- method_summary: NCI tumour cell line growth inhibition, 48 h; in the data active = GI50 below about 0.43 µM; inactive = the rest
Reply using exactly one outcome from 1.0 for active, 0.0 for inactive

Here are 3 compounds together with their reported answers.
>  <chem_smiles>
CCc1ccc(OCc2ccccc2C(=O)Nc2ccc3nc(C)cc(N)c3c2)cc1

>  <qualitative_label>
0.0

$$$$
>  <chem_smiles>
Cc1cc2c(-c3nc4ccccn4c3NC34CC5CC(CC(C5)C3)C4)c(O)c(O)cc2c(O)c1-c1c(C)cc2c(-c3nc4ccccn4c3NC34CC5CC(CC(C5)C3)C4)c(O)c(O)cc2c1O

>  <qualitative_label>
0.0

$$$$
>  <chem_smiles>
O=C1c2cc3c(cc2-c2c1c1cc(F)c(F)cc1c(=O)n2C[C@H](O)CO)OCO3

>  <qualitative_label>
1.0

$$$$

Query: Please share the test call associated with "Cc1ccc(-c2cc(C(Cl)Cl)on2)cc1" .
Result: 0.0

Query: One more compound: "CC(C)c1ccc2c(c1)c(SC(C)(C)C)c(CC(C)(C)C(=O)O)n2Cc1ccc(Cl)cc1"
Result: 0.0

* * *

Listed below: TGI values for each entry.
- System: KM12 colon
- method_summary: NCI tumour cell line growth inhibition, 48 h

Example results:
>  <compound>
CC1=NN(c2cccc(Cl)c2)C2(C1=Cc1ccc(N(C)C)cc1)C(Cl)C(=O)N2c1nc2ccccc2s1 (stereo unspecified)

>  <assay_target>
KM12 colon

>  <TGI>
38.5 µM

$$$$
>  <compound>
OC(CCN1CCN(CCOC(c2ccc(F)cc2)c2ccc(F)cc2)CC1)c1ccc(Br)cc1 (stereo unspecified)

>  <assay_target>
KM12 colon

>  <TGI>
8.07 µM

$$$$
>  <compound>
N=C(N)SCC(=O)O

>  <assay_target>
KM12 colon

>  <TGI>
> 100 µM

$$$$
>  <compound>
Fc1ccc(-c2cc(-c3cn[nH]c3-c3ccccn3)ccn2)cc1

>  <assay_target>
KM12 colon

>  <TGI>
> 25 µM

$$$$
>  <compound>
CC(C)(C)OC(=O)n1c(Cl)c(C(=O)N=C=S)c2ccccc21

>  <assay_target>
KM12 colon

>  <TGI>
52 µM

$$$$
>  <compound>
CCC(C)C(NC(=O)C(CCCC[N+](=N)N)NC(=O)C(CCCC[N+](=N)N)NC(=O)c1ccc(OC)cc1)C(=O)NC(CCCC[N+](=N)N)C(=O)N1CCCC1C(=O)NC(CCCCN)C(=O)NC(CC(C)C)C(N)=O (stereo unspecified)

>  <assay_target>
KM12 colon

>  <TGI>
> 100 µM

$$$$
>  <compound>
C1=CC=C2NCCSCCNC3=CC=CC=CC3=NCCSCCN=C2C=C1

>  <assay_target>
KM12 colon

>  <TGI>
> 100 µM

$$$$
>  <compound>
C=CCN(c1cc(OC)c2[nH]c(C(=O)O)c(C)c2c1[N+](=O)[O-])S(C)(=O)=O

>  <assay_target>
KM12 colon

>  <TGI>
> 100 µM

$$$$

Query: Given the entry "COc1ccc(-c2nn3ncccc3c2-c2ccnc(Nc3cccc(C(F)(F)F)c3)n2)cc1" , report its measured TGI.
Result: > 25 µM

Query: One more compound: CC(Br)CN(CC(C)Br)c1ccc2c(c1)Cc1ccccc1-2 (stereo unspecified)
Result: 31.4 µM

Query: One more compound: "Nc1nc(Cl)cc(NCCCCCCNc2cc(Cl)nc(N)n2)n1"
Result: > 100 µM

Query: One more compound: COc1ccc2c(c1)CCC(CN1CCN(CCOC(c3ccccc3)c3ccccc3)CC1)C2O (stereo unspecified)
Result: 44.6 µM

Query: One more compound: "COc1ccc(CNC(=O)c2ccc(-c3cc(-c4nnc(C)o4)ccc3C)cc2)cc1"
Result: > 25 µM

Query: One more compound: "O/N=C/[C@H]1COC2(CCCCC2)O1"
Result: > 100 µM

Query: One more compound: "N#Cc1c(-c2ccc(Cl)cc2)csc1NC(=O)Nc1cccc(C(F)(F)F)c1"
Result: 9.9 µM

Query: One more compound: "C=CCN(N=O)C(=O)ON1C(=O)CCC1=O"
Result: > 100 µM

Query: One more compound: "NC(=O)c1c(NC(=O)c2cccc(C(F)(F)F)c2)sc2c1CCC(=O)C2"
Result: 2.01 µM

Query: One more compound: CN1C(=O)CC2(C)c3cc(C=O)ccc3N(C)C12 (stereo unspecified)
Result: > 100 µM

Query: One more compound: O=C1CCC(CCc2nc3ccccc3[nH]2)(c2ccccc2)C(=O)N1 (stereo unspecified)
Result: > 100 µM

Query: One more compound: O=c1ncccn1C1OC(CO)C(O)C1F (stereo unspecified)
Result: > 100 µM

Query: One more compound: CC1(C)Oc2ccccc2N2O[C@@H]3C(=O)N(c4ccccc4)C(=O)[C@@H]3C21c1ccccc1 (stereo partly specified)
Result: > 100 µM
